tested_system: Avi-KRAS G12V (2-169) GTP/RAF1 RBD-3xFLAG (51-131) (Homo sapiens, UniProt P01116, G12V)
Construct: Avi-KRAS G12V (2-169)
Sequence (P01116 2-169 isoform P01116-2 G12V): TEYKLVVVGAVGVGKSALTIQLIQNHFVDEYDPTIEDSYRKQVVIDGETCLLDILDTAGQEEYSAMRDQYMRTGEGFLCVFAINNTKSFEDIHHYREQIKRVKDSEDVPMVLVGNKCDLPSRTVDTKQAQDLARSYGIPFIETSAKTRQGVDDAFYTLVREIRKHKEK
test_method_notes: Raf1-KRAS G12V-GTP disruption HTRF assay (Biological Example 3)
Type: binding
condition_description: KRAS G12V, GTP-loaded
Exercise: for every item that follows, state its recorded IC50.

As a guide, the following entries are already answered.
| compound | tested_system | value_kind | measurement |
| --- | --- | --- | --- |
| CCN(c1nc(OC[C@@]23CCCN2C[C@H](F)C3)nc2c(F)c(-c3ccc(F)c4sc(N)c(C#N)c34)c(C(F)(F)F)cc12)[C@H]1C[C@H](COC)N(C(=O)C2C[C@@H]2F)C1 (stereo partly shown) | Avi-KRAS G12V (2-169) GTP/RAF1 RBD-3xFLAG (51-131) (Homo sapiens, UniProt P01116, G12V) | IC50 | 100 to 1000 nM |
| [2H]C1([2H])O[C@@H]2C[C@H]1N(c1nc(OC[C@@]34CCCN3C[C@H](F)C4)nc3c(F)c(-c4ccc(F)c5sc(N)c(C#N)c45)c(C(F)(F)F)cc13)C2 | Avi-KRAS G12V (2-169) GTP/RAF1 RBD-3xFLAG (51-131) (Homo sapiens, UniProt P01116, G12V) | IC50 | 1000 to 10000 nM |
| CCN(c1nc(OC[C@@]23CCCN2C[C@H](F)C3)nc2c(F)c(-c3ccc(F)c4sc(N)c(C#N)c34)c(C(F)(F)F)cc12)[C@H]1C=C[C@@H](C(=O)N(C)C)C1 (atropisomer, axis not shown) | Avi-KRAS G12V (2-169) GTP/RAF1 RBD-3xFLAG (51-131) (Homo sapiens, UniProt P01116, G12V) | IC50 | > 10000 nM |

Parameters: items (list). Returns: IC50 for each item.
1. CCN(c1nc(OC[C@@]23CCCN2C[C@H](F)C3)nc2c(F)c(-c3ccc(F)c4sc(N)c(C#N)c34)c(C(F)(F)F)cc12)[C@H]1CCN(C(=O)C2CC2(F)F)C1 (stereo partly shown)
2. CCN(c1nc(OC[C@@]23CCCN2C[C@H](F)C3)nc2c(F)c(-c3ccc(F)c4sc(N)c(C#N)c34)c(C(F)(F)F)cc12)[C@H]1CCN(C(=O)N(C)C)C1 (atropisomer, axis not shown)
3. CCN(c1nc(OC[C@@]23CCCN2C[C@H](F)C3)nc2c(F)c(-c3ccc(F)c4sc(N)c(C#N)c34)c(C(F)(F)F)cc12)[C@H]1C[C@H](C)N(C(=O)[C@@H]2C[C@H]2F)C1 (atropisomer, axis not shown; (aS))

1. ≤ 100 nM
2. ≤ 100 nM
3. ≤ 100 nM

Parameters: items (list). Returns: IC50 for each item.
1. CCN(c1nc(OC[C@@]23CCCN2C[C@H](F)C3)nc2c(F)c(-c3ccc(F)c4sc(N)c(C#N)c34)c(C(F)(F)F)cc12)[C@H]1CCN(C(=O)C2CC(OC)C2)C1 (stereo partly shown)
2. CCN(c1nc(OCC23CCCN2CC(F)C3)nc2c(F)c(-c3ccc(F)c4sc(N)c(C#N)c34)c(C(F)(F)F)cc12)C(C)c1cccnc1 (stereo not shown)

100 to 1000 nM
> 10000 nM

Parameters: items (list). Returns: IC50 for each item.
1. CCN(c1nc(OC[C@@]23CCCN2C[C@H](F)C3)nc2c(F)c(-c3ccc(F)c4sc(N)c(C#N)c34)c(C(F)(F)F)cc12)[C@H]1CCN(C(=O)O[C@H]2CCCOC2)C1 (atropisomer, axis not shown)
2. CCN(c1nc(OC[C@@]23CCCN2C[C@H](F)C3)nc2c(F)c(-c3ccc(F)c4sc(N)c(C#N)c34)c(C(F)(F)F)cc12)[C@H]1C[C@H]2[C@@H](C)OC(=O)N2C1 (atropisomer, axis not shown)

1. 100 to 1000 nM
2. 100 to 1000 nM
